Would you mind telling me the reported protein stability index of each entry?
B1: EPB41L3 (parent)
chain: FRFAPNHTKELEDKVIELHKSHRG

variants of: B1; assay: protein stability index of a GFP-peptide fusion (GPS, HEK-293T) (PSI 1-6); higher = more stable; conditions: c terminus: a fixed tail appended;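 also: lentivirally expressed fusions sorted by FACS into six bins by GFP to DsRed ratio, PSI derived from sequencing read proportions per bin multiplied by bin number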
Answers are plain numbers.

Here is how some variants turned out for protein stability index.
MACROMOLECULE SEQUENCE	protein stability index
FIFAPNHTKELEDKVIELHKSHRG [R2I]	2.03
FRFAPNHTKELEDKVIHLHKSHRG [E17H]	2.04
FRFAPNHTKELEDKVIELHESHRG [K20E]	2.84
FRFAPNHTKELEDKVIKLHKSHRG [E17K]	1.72
FRFAPNHTKELEDKVIELHKSHRT [G24T]	1.73

Below are some variants; for each one, tell me its protein stability index.
1. FRFAPNHRKELEDKVIELHKSHRG [T8R]
2. FRFAPNHTKELEDKVIELHASHRG [K20A]
3. FRFAPNHTKELEDKVIELHKSARG [H22A]
4. FRFAPNHTKELEDKGIELHKSHRG [V15G]
5. FRFAPNHTKELEDKVIELHKSIRG [H22I]
6. FRFAPNHTKELEDKVIELHKEHRG [S21E]
7. NRFAPNHTKELEDKVIELHKSHRG [F1N]

1: 1.92; 2: 2.29; 3: 1.98; 4: 2.55; 5: 1.68; 6: 2.9; 7: 3.62

All figures here come from the supplement of paper PMC10567573.
